- test_summary: Cytotoxicity against human BJ cells assessed as cell viability at 30 uM after 72 hrs by fluorescence assay relative to control
- assay_setup: BJ cells
One threshold, 90%, splits the recorded viability at 72 h, 30 µM values: lower ones are Fulfilled, equal or higher ones are Not fulfilled.

query_smiles=CC(C)n1cnc2c(NCc3ccccc3)nc(NCCO)nc21 label=Fulfilled
query_smiles=CC[C@H](CO)Nc1nc(NCc2cc(O)ccc2O)c2ncn(C(C)C)c2n1 label="Not fulfilled"
query_smiles=CC(C)n1cnc2c(NCc3ccccc3)nc(NC[C@H](C)O)nc21 label="Not fulfilled"
query_smiles=CC[C@H](CO)Nc1nc(NCc2ccc(OC)cc2O)c2ncn(C(C)C)c2n1 label=Fulfilled
query_smiles=CC(C)n1cnc2c(NCc3ccc(O)cc3)nc(NCCCO)nc21 label=Fulfilled

Okay, now this compound:
## Task Below 90% on viability at 72 h, 30 µM? Entry `CC[C@H](CO)Nc1nc(NCc2ccccc2)c2ncn(C(C)C)c2n1`
## Result Not fulfilled

====

Each entry below carries its reported viability at 72 h, 30 µM.
- test_summary: Cytotoxicity against human BJ cells assessed as cell viability at 30 uM after 72 hrs by fluorescence assay relative to control
- assay_setup: BJ cells

query_smiles=CC[C@H](CO)Nc1nc(NCc2ccccc2N)c2ncn(C(C)C)c2n1 result=95.7%
query_smiles=CC[C@H](CO)Nc1nc(Nc2ccc(S(=O)(=O)NC(=N)N)cc2)c2ncn(C(C)C)c2n1 result=84.4%
query_smiles=CC(C)n1cnc2c(NCc3ccccc3O)nc(N[C@H]3CC[C@H](N)CC3)nc21 result=90.4%

## Task Find the measured viability at 72 h, 30 µM of `CC(C)n1cnc2c(NCc3ccccc3)nc(NCCN)nc21` and report it.
## Result 95.2%

## Task Find the measured viability at 72 h, 30 µM of `CC(C)n1cnc2c(NCc3ccccc3)nc(NCCOCCO)nc21` and report it.
## Result 69.9%

## Task Find the measured viability at 72 h, 30 µM of `CC(C)n1cnc2c(NCc3ccccc3O)nc(N[C@@H]3CCCC[C@H]3N)nc21` and report it.
## Result 98.7%

## Task Find the measured viability at 72 h, 30 µM of `CC[C@H](CO)Nc1nc(NCc2cccc(C)c2O)c2ncn(C(C)C)c2n1` and report it.
## Result 82.9%

## Task Find the measured viability at 72 h, 30 µM of `CC(C)n1cnc2c(NCc3ccccc3O)nc(N3CCN(CC#N)CC3)nc21` and report it.
## Result 91.8%
